Test system: Liposome
experimental details: Binding to POPC/GMI liposomes using biosensor system
Format: functional

compound	Other
OC[C@H]1OC(O)[C@H](O)[C@@H](O)[C@@H]1O (stereo partly drawn)	10
Cc1cc(=O)n(-c2ccccc2)n1C [ANTIPYRINE]	12
NC(=O)N1c2ccccc2C=Cc2ccccc21 [CARBAMAZEPINE]	144
NS(=O)(=O)c1cc(C(=O)O)c(NCc2ccco2)cc1Cl [FUROSEMIDE]	92
CC(C(=O)O)c1cccc(C(=O)c2ccccc2)c1 (stereo not drawn)	101
C=CCc1ccccc1OCC(O)CNC(C)C (stereo not drawn)	480
OC[C@H]1O[C@@H](O[C@@H]2[C@@H](CO)O[C@](O)(CO)[C@H]2O)[C@H](O)[C@@H](O)[C@H]1O	29
CC(C)NCC(O)COc1cccc2[nH]ccc12 (stereo not drawn)	314
CC1(C)S[C@@H]2[C@H](NC(=O)[C@H](N)c3ccc(O)cc3)C(=O)N2[C@H]1C(=O)O	9
CNCCCN1c2ccccc2CCc2ccccc21	1200
CCN1CCCC1CNC(=O)c1cc(S(N)(=O)=O)ccc1OC (stereo not drawn)	78
CC(C)NCC(O)COc1cccc2ccccc12 (stereo not drawn)	839
OC[C@H]1O[C@H](OC[C@H]2O[C@H](O[C@]3(CO)O[C@H](CO)[C@@H](O)[C@@H]3O)[C@H](O)[C@@H](O)[C@@H]2O)[C@H](O)[C@@H](O)[C@H]1O	34
NC[C@H]1CC[C@H](C(=O)O)CC1	14
CC(C)NCC(O)COc1ccc(CC(N)=O)cc1 (stereo not drawn)	38
OC[C@@H](O)[C@@H](O)[C@H](O)[C@H](O)CO	29
NS(=O)(=O)c1cc2c(cc1Cl)NCNS2(=O)=O [HYDROCHLOROTHIAZIDE]	95
C=CCOc1ccccc1OCC(O)CNC(C)C (stereo not drawn)	277

----------
System: Liposome
experimental details: Binding to POPC (palmitoyl-oleolyl-phosphatidyl-choline) liposomes using biosensor system
Format: functional
Rule: Other below 20 gives YES. Equal to or above 20 gives NO.

compound	discrete label
OC[C@H]1OC(O)[C@H](O)[C@@H](O)[C@@H]1O (stereo partly drawn)	YES
OC[C@H]1O[C@H](OC[C@H]2O[C@H](O[C@]3(CO)O[C@H](CO)[C@@H](O)[C@@H]3O)[C@H](O)[C@@H](O)[C@@H]2O)[C@H](O)[C@@H](O)[C@H]1O	NO
C=CCOc1ccccc1OCC(O)CNC(C)C (stereo not drawn)	NO
CC(C(=O)O)c1cccc(C(=O)c2ccccc2)c1 (stereo not drawn)	NO
CC(C)NCC(O)COc1ccc(CC(N)=O)cc1 (stereo not drawn)	NO
OC[C@H]1O[C@@H](O[C@@H]2[C@@H](CO)O[C@](O)(CO)[C@H]2O)[C@H](O)[C@@H](O)[C@H]1O	NO
CC1(C)S[C@@H]2[C@H](NC(=O)[C@H](N)c3ccc(O)cc3)C(=O)N2[C@H]1C(=O)O	YES
CNCCCN1c2ccccc2CCc2ccccc21	NO
CCN1CCCC1CNC(=O)c1cc(S(N)(=O)=O)ccc1OC (stereo not drawn)	NO
NS(=O)(=O)c1cc2c(cc1Cl)NCNS2(=O)=O [HYDROCHLOROTHIAZIDE]	NO
Cc1cc(=O)n(-c2ccccc2)n1C [ANTIPYRINE]	YES
CC(C)NCC(O)COc1cccc2[nH]ccc12 (stereo not drawn)	NO
NS(=O)(=O)c1cc(C(=O)O)c(NCc2ccco2)cc1Cl [FUROSEMIDE]	NO
CC(C)NCC(O)COc1cccc2ccccc12 (stereo not drawn)	NO
OC[C@@H](O)[C@@H](O)[C@H](O)[C@H](O)CO	NO
C=CCc1ccccc1OCC(O)CNC(C)C (stereo not drawn)	NO
NC(=O)N1c2ccccc2C=Cc2ccccc21 [CARBAMAZEPINE]	NO
